# credit: patent US20230286973A1

Test system: multiple myeloma cell line NCI-H929
protocol-summary: H929 Cell Viability Assay
Type: cell-based, human
condition-context: Homo sapiens, NCI-H929, 48 h, NCI-H929 cells, Celltiter-Glo
measured-parameter: EC50

The following compounds have reported results that may help.
compound	system-name	val
O=C(Nc1nc(/C=C/[C@@H]2CCCCN2)cs1)c1cccn1Cc1ccncc1	multiple myeloma cell line NCI-H929	> 25 µM
O=C1CCCC(/C=C/c2csc(NC(=O)c3cccn3Cc3ccncc3)n2)N1 (centres unmarked)	multiple myeloma cell line NCI-H929	> 25 µM

Quick one: EC50 of `O=C(Nc1nc([C@H]2CCCN2c2cccnn2)cs1)c1cccn1Cc1ccncc1` ?
> 25 µM

May I ask what EC50 has been recorded for `N#CC[C@H](O)Cn1cccc1C(=O)Nc1nc([C@H]2CCCN2c2ccccc2)cs1` ?
> 25 µM

Which EC50 is listed for `NC(=O)CCCCn1cccc1C(=O)Nc1nc([C@H]2CCCN2c2ccccc2)cs1` ?
> 25 µM

May I ask what EC50 has been recorded for `CC(C)n1cc(/C=C/c2csc(NC(=O)c3cccn3Cc3ccnc(F)c3)n2)nc1CO` ?
> 25 µM

For CC(C#N)CCn1cccc1C(=O)Nc1nc([C@H]2CCCN2c2ccccc2)cs1 (some centres unmarked) , what is its reported EC50?
> 25 µM
